experimental_protocol: BSK_4H_Eotaxin3: BioMAP Diversity Plus: 4H Assay for Eotaxin 3 Biomarker Activity (AID 2283000)
study_conditions: primary human endothelial cells (HUVEC); actives raise or lower the signal
Activity calls are given as the source filed them. How the source made its calls: active means hit-call score of the fitted dose curve at least 0.9, where 1 is the maximum; inactive means score below 0.9.
Respond with a class label; see active, inactive

query: # lookup: test call for c1ccc(Oc2ccccc2)cc1
result: active

query: Status in this test for CCC(C)c1cc([N+](=O)[O-])cc([N+](=O)[O-])c1OC(=O)OC(C)C (stereo not drawn) ?
result: active

query: Could you check what this test reported for O=CN1CCOCC1 ?
result: inactive

* * *

experimental_protocol: ATG_M_06_CIS: Attagene CIS-FACTORIAL HepG2 Assay for M06 Transcription Factor (Internal Marker) (AID 2282950)
study_conditions: HepG2 Attagene CIS-FACTORIAL M06 internal marker reporter; actives raise or lower the signal
Calls of active or inactive are those of the source. How the source made its calls: active means hit-call score of the fitted dose curve at least 0.9, where 1 is the maximum; inactive means score below 0.9.
readout: outcome

Examples with answers:
CCCC1O[C@@H]2C[C@H]3[C@@H]4CCC5=CC(=O)C=C[C@]5(C)[C@H]4[C@@H](O)C[C@]3(C)[C@]2(C(=O)CO)O1 (stereo not given in full) :: inactive
c1ccc(Oc2ccccc2)cc1 :: inactive
CCCC(C)C(O)CC (stereo not given) :: inactive
CCCCCC(=O)CC :: inactive

With those in mind, consider the next compound.
Sure, the documented outcome for CCCCSCCCC is inactive

* * *

Read-out: Epidermal growth factor receptor (EGFR), EGFR (gene 1956)
experimental_protocol: BSK_hDFCGF_EGFR: BioMAP Diversity Plus: hDFCGF Assay for Epidermal growth factor receptor (EGFR) Biomarker Activity (AID 2283057)
study_conditions: primary human foreskin fibroblasts; actives raise or lower the signal
The source made the active and inactive calls. Rule for the calls: active = hit-call score of the fitted dose curve at least 0.9, where 1 is the maximum; inactive = score below 0.9.
Pick one and only one: active, inactive

query: GET /call?item= CC(=O)c1c(C)c([N+](=O)[O-])c(C(C)(C)C)c([N+](=O)[O-])c1C returns the recorded outcome of this test.
result: inactive

query: What was the test verdict on Clc1cc(Cl)c(-c2c(Cl)c(Cl)cc(Cl)c2Cl)cc1Cl ?
result: inactive

query: # lookup: test call for O=C1c2ccccc2C(=O)c2c(O)ccc(O)c21
result: inactive

query: Per the assay record, what outcome was assigned to CN(c1nccc(=O)[nH]1)C1CCN(c2nc3ccccc3n2Cc2ccc(F)cc2)CC1 ?
result: inactive

query: Record lookup: outcome of this test for C=C(C)C(=O)OCCOCCOCCOC(=O)C(=C)C ?
result: inactive

query: Write down the call the test reported for this compound. Item: CN(C)C(=O)Nc1ccc(Oc2ccc(Cl)cc2)cc1
result: inactive

query: Test call, this compound: c1ccc(CCc2ccccc2)cc1
result: inactive

query: # fetch the recorded call for C=C(C)C(=O)OCC(CC)(COC(=O)C(=C)C)COC(=O)C(=C)C here
result: active

query: Please indicate how the test categorized IC(I)I .
result: inactive

query: Test call for this compound, please: CC(C=O)Cc1ccc(C(C)(C)C)cc1 (stereo unspecified)
result: active

query: Just curious, what result did C=CC(C)(O)CCC=C(C)C (stereo unspecified) get here?
result: inactive

query: Each compound tested received a call. Report the one for CC1(C)C2=CCCC(C)(C)[C@]23CC[C@H]1C3 .
result: inactive

query: Assay result, entry CCCCN(CCCC)C(=O)N(CCCC)CCCC — outcome?
result: inactive

query: Hey, what did the test say about O=C(Nc1ccc2c(O)c(N=Nc3ccc(N=Nc4ccc(S(=O)(=O)O)cc4)cc3)c(S(=O)(=O)O)cc2c1)c1ccccc1 ?
result: inactive

query: Would you mind telling me which call this test gave CCCCCCC(CO)CCCC (stereo unspecified) ?
result: inactive

query: Each compound tested received a call. Report the one for CC(=O)C1(C)CC2=C(CCCC2(C)C)CC1C (stereo unspecified) .
result: active

query: Would you mind telling me which call this test gave CC(C)(C)CC(C)(C)c1ccc(OCCOCC[N+](C)(C)Cc2ccccc2)cc1 ?
result: inactive

query: Record request — test call for CS(=O)(=O)c1ccc(C2=C(c3ccccc3)C(=O)OC2)cc1
result: inactive

query: Test call for this compound, please: CCN(CC)C(=O)N(CC)CC
result: inactive

query: I'd appreciate the recorded outcome for CCC(C)c1cc([N+](=O)[O-])cc([N+](=O)[O-])c1OC(=O)OC(C)C (stereo unspecified) from this test.
result: inactive

query: For this compound, state the assay outcome: CC(CN=Cc1ccccc1O)N=Cc1ccccc1O (stereo unspecified)
result: inactive

query: For CCOC(=O)C(C#N)=C(c1ccccc1)c1ccccc1 , which call appears in the assay record?
result: inactive

query: Tell me the recorded outcome of this test for C=C(C)C(=O)OCCOCCOCCOCCOC(=O)C(=C)C .
result: inactive

query: Answer briefly: the call reported for c1ccc(Oc2ccccc2)cc1 in this assay.
result: inactive

query: Give the logged outcome of this assay for the following compound: O=C1OC[C@H](Cc2cccc(O)c2)[C@H]1Cc1cccc(O)c1
result: inactive

query: What did the test return for C[C@@H]1CCN(C(=O)[C@H](CCCN=C(N)N)NS(=O)(=O)c2cccc3c2NC[C@H](C)C3)[C@@H](C(=O)O)C1 ?
result: inactive

query: Call for entry CCCCOC(=O)CCCCCCCC(=O)OCCCC :
result: inactive

query: Call for entry Oc1c(Cl)cc(Cl)c(Cl)c1Cc1c(O)c(Cl)cc(Cl)c1Cl :
result: inactive

query: Would you mind telling me which call this test gave COc1ccc(OC)c(N=Nc2c(O)ccc3ccccc23)c1 ?
result: inactive

query: Could you check what this test reported for CN(C)C(=S)SC(=S)N(C)C ?
result: active

query: Identify the outcome logged in this assay for the compound shown: CCCCCCCCCCCCCCCC(=O)OC/C=C(C)/C=C/C=C(C)/C=C/C1=C(C)CCCC1(C)C
result: inactive
